molecular target: Ubiquitin carboxyl-terminal hydrolase 2 (Homo sapiens); assay: qHTS Validation Assay for Inhibitors of Ubiquitin-specific Protease USP2a Using CHOP2 as the Reporter (AID 463106); details: USP2a cleavage of CHOP2 reporter, enzymatic; series mostly up to 38.3 µM
Inconclusive results are not listed. Active and inactive are the calls of the source. The call rests on the fitted dose curve; in most records, active means well fitted inhibition curve with a large enough effect; inconclusive means small, poorly fitted or top-dose-only effect, or effect the other way; inactive means flat fitted curve, though single readings scatter.
METRIC NAME: outcome

- MOLECULE: "Nn1nnc2ccccc21"
  METRIC NAME: "outcome"
  TEST VALUE: "inactive"
- MOLECULE: "CCOC(=O)C12CC1/C(=N/O)c1ccccc1O2 (stereo unspecified)"
  METRIC NAME: "outcome"
  TEST VALUE: "inactive"
- MOLECULE: "CCCC(=O)NCCc1c2n(c3ccc(OC)cc13)CCCc1ccccc1-2"
  METRIC NAME: "outcome"
  TEST VALUE: "inactive"
- MOLECULE: "NC(N)=NC(N)=Nc1ccccc1"
  METRIC NAME: "outcome"
  TEST VALUE: "inactive"
- MOLECULE: "CC1C(=O)N(C)C(=O)c2nc[nH]c21 (stereo unspecified)"
  METRIC NAME: "outcome"
  TEST VALUE: "inactive"
- MOLECULE: "Cc1cccc(C(=O)NCN2CCN(c3ccccc3C#N)CC2)c1"
  METRIC NAME: "outcome"
  TEST VALUE: "inactive"

For the molecule Cc1cc(Cn2cnc3c2C[C@@H](C(=O)O)N(C(=O)C(c2ccccc2)c2ccccc2)C3)ccc1N , report outcome.
inactive

For the molecule CN1Cc2sccc2C(c2ccc(O)c(O)c2)C1 (stereo unspecified) , give its reported outcome.
inactive

Provide measured outcome value, entry: c1ccc2nc(C3=NCCN3)ccc2c1
inactive

Return value of outcome for input CC1CCN=C(N)S1 (stereo unspecified) , no commentary.
inactive

----------
Biological target: Voltage-gated inwardly rectifying potassium channel KCNH2 (Homo sapiens) (UniProt Q12809)
Sequence (Q12809 whole entry, looked up): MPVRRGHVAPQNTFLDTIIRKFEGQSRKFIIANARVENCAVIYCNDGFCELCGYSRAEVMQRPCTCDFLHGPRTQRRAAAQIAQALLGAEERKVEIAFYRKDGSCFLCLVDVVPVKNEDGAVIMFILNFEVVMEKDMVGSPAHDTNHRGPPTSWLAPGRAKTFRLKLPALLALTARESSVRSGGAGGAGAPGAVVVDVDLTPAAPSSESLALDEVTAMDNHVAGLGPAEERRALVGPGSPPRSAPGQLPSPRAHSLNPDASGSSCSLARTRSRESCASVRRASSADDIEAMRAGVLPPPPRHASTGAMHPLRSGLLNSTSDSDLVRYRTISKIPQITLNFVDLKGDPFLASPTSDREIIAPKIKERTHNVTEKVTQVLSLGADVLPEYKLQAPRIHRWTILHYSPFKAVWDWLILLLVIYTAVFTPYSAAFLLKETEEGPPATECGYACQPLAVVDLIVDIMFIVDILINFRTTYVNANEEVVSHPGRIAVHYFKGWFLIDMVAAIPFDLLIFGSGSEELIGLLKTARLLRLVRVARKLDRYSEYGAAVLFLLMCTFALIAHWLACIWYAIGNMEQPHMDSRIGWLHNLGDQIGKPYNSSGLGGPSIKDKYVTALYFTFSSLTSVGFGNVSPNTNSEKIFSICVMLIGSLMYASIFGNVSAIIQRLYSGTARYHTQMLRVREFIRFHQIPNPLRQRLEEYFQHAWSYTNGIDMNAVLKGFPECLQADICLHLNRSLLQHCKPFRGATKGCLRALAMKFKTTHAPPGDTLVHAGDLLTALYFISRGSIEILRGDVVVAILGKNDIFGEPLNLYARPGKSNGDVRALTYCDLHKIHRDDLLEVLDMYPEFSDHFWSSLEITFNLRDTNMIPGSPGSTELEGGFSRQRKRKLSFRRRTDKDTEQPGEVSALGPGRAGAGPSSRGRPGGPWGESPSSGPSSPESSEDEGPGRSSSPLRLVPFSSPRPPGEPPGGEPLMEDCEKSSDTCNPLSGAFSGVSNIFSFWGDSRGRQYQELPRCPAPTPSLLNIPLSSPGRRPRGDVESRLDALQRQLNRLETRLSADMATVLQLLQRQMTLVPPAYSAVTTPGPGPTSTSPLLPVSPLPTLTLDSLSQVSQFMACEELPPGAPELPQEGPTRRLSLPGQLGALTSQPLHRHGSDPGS
Experiment: qHTS Assay for Small Molecule Inhibitors of the Human hERG Channel Activity (AID 588834);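 further: lower thallium flux fluorescence means stronger hERG block; nearly all actives have a fitted effect of over 50% in size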
Conditions: U2OS BacMam hERG, FluxOR thallium flux fluorescence; series mostly up to 46.1 µM
Protocol: NIH Chemical Genomics Center [NCGC] National Institutes of Environmental Health Sciences [NIEHS] National Toxicology Program [NTP] We have developed a 1536-well cell-based assay for quantitative high throughput screening (qHTS) to determine in vitro hERG channel blockage as a measure of cardio toxicity with small molecules. […] 13. Read fluorescence Intensity on FDSS for 10 Sec with 1 sec interval […] 15. Read fluorescence Intensity on FDSS for 2 min with 1 sec interval […]
Results filed as inconclusive are left out. Calls of active or inactive are those of the source. Calls follow the shape of the dose curve; as a rule, active = well fitted inhibition curve with a large enough effect; inconclusive = small, poorly fitted or top-dose-only effect; inactive = flat fitted curve, though single readings scatter.
In this exercise, the only acceptable responses are active, inactive

Use the examples below as a reference point.
- COMPOUND: "CCCCCCCCCCC/C=C\\C(C)(C)/C=C\\CCCC(=O)O"
  LABEL CLASS: "inactive"
- COMPOUND: "c1ccc2c(c1)CC(N1CCN(c3cccc4c3OCCO4)CC1)C2"
  LABEL CLASS: "active"
- COMPOUND: "CNc1ncnc2c1ncn2[C@H]1C[C@H](OP(=O)(O)O)[C@@H](COP(=O)(O)O)O1"
  LABEL CLASS: "inactive"
- COMPOUND: "NC(N)=N[C@@H](CCC(=O)O)C(=O)O"
  LABEL CLASS: "inactive"
- COMPOUND: "N[C@H](C(=O)O)[C@H]1C[C@@H]1C(=O)O"
  LABEL CLASS: "inactive"

Please indicate how the test categorized N[C@@H](CCC(=O)N[C@H](CSN=O)C(=O)NCC(=O)O)C(=O)O .
inactive

Outcome? COc1ccc(NC(=O)c2ccc(-c3ccc(-c4noc(C)n4)cc3C)cc2)cc1N1CCN(C)CC1
active

I'd appreciate the recorded outcome for N#CC(C#N)=C(N)/C(C#N)=C/c1ccc(O)cc1 from this test.
inactive

Identify the outcome logged in this assay for the compound shown: N#CC(=C(\N)Sc1ccccc1N)/C(C#N)=C(/N)Sc1ccccc1N
inactive

// return assay outcome for NC1(C(=O)O)CCCCC1
inactive

Recorded test outcome, item CC(C)(C)c1cc(/C=C(\C#N)C(N)=S)cc(C(C)(C)C)c1O
active

Can you look up the reported call for O=c1[nH]c2cc(Cl)ccc2c(O)c1-c1ccc(Oc2ccccc2)cc1 for me?
inactive

----------
biological target: Alpha-galactosidase A (Homo sapiens) (UniProt P06280); assay: Counterscreen for Glucocerebrosidase Inhibitors: qHTS Assay for Human alpha-Galactosidase at pH 4.5 (AID 992); details: purified enzyme, fluorogenic substrate; series mostly up to 76.9 µM
Sequence (P06280 whole entry, looked up): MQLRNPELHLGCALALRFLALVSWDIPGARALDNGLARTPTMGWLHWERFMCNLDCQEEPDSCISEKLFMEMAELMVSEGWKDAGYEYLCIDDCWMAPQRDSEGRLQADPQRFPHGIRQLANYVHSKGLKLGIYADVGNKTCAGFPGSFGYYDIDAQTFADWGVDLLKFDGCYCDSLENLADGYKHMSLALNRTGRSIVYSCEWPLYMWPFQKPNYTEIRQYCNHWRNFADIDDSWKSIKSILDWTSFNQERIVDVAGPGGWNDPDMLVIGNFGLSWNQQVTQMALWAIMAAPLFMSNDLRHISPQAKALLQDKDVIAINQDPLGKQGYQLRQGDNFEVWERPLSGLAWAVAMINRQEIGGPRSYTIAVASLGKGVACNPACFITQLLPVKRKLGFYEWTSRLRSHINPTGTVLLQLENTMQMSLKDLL
Calls of active or inactive are those of the source. Calls follow the shape of the dose curve; as a rule, active = well fitted curve in the direction sought with a large enough effect; inactive = no such curve, though single readings can be large or run the other way.
METRIC NAME: outcome

Use these answered entries as a reference point.
- MOLECULE: "CC(C)NC[C@H](O)COc1ccc(CC(N)=O)cc1"
  METRIC NAME: "outcome"
  TEST VALUE: "inactive"
- MOLECULE: "CC(=O)NNC(=O)N1Cc2ccccc2Oc2ccc(Cl)cc21"
  METRIC NAME: "outcome"
  TEST VALUE: "inactive"
- MOLECULE: "NCCCCN"
  METRIC NAME: "outcome"
  TEST VALUE: "inactive"
- MOLECULE: "COc1ccccc1N1CCN(CCCCNC(=O)c2ccc3ccccc3c2)CC1"
  METRIC NAME: "outcome"
  TEST VALUE: "inactive"
- MOLECULE: "O=C(O)Cc1c[nH]c2ccc(O)cc12"
  METRIC NAME: "outcome"
  TEST VALUE: "inactive"

Note outcome for the molecule shown: CC[N+](CC)(CC)CC(=O)Nc1c(C)cccc1C
inactive

# return recorded outcome for entry Cc1nc2c(OCc3ccccc3)cccn2c1CC#N
inactive

Tell me its outcome given O=c1[nH]c2cc(Cl)ccc2c(O)c1-c1ccc(Oc2ccccc2)cc1 as the entry.
inactive

Give the reported outcome for this molecule. NC1(C(=O)O)CC1
inactive

Please indicate outcome recorded for CCCCCCN(CCCCCC)C(=O)Cc1c(-c2ccc(F)cc2)[nH]c2ccccc12
inactive

Hello, please tell me recorded outcome for this one: O=c1onc2cnc3ccccc3n12
inactive

----------
biological target: Thyrotropin-releasing hormone receptor (Homo sapiens); test: qHTS for Small Molecule Agonists and Allosteric Enhancers of Human TRH Receptor: Validation Screen for Agonists (AID 493127); details: TRH receptor agonist cell assay; at 2 µM;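 further: intracellular calcium rise by fluo-8 fluorescence before TRH EC20 addition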
Calls of active or inactive are those of the source.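 How the source made its calls: active means calcium activation more than 3 SD above the typical response in the agonist read; inactive means the rest.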
Choose the fitting class; nothing outside Y for active, N for inactive is accepted.

- COMPOUND: "COc1cc(/C=C(\\C#N)C(=O)c2ccc(O)c(O)c2)cc(I)c1O"
  LABEL CLASS: "Y"

What is the recorded call for this compound in the test? O=c1oc(Cl)c(Cl)c2ccccc12
N

Field: outcome | Entry: CC[C@H](NC(=O)c1c(C)c(-c2ccccc2)nc2ccccc12)c1ccccc1
N

Fill in: this test's call for O=C1OC(=O)C2C3CCC(O3)C12 (configuration not stated) is ___
N

----------
biological target: RecQ-like DNA helicase BLM (Homo sapiens); experiment: qHTS Validation Assay for Inhibitors of Bloom's syndrome helicase (BLM) (AID 2364); settings: BLM helicase DNA unwinding, fluorescence, in vitro; series mostly up to 57.1 µM
Inconclusive results are not listed. The source made the active and inactive calls. Calls follow the shape of the dose curve; as a rule, active = well fitted inhibition curve with a large enough effect; inconclusive = small, poorly fitted or top-dose-only effect; inactive = no such curve, though single readings can be large or run the other way.
API: response.call in active, inactive

- COMPOUND: "N[C@@H](CS(=O)O)C(=O)O"
  LABEL CLASS: "inactive"
- COMPOUND: "Nc1nc2ccc(Cl)cc2c2nc(-c3ccco3)nn12"
  LABEL CLASS: "inactive"
- COMPOUND: "CCCCCC(O)CCCC(=O)O (stereo not drawn)"
  LABEL CLASS: "inactive"
- COMPOUND: "CN(C)CCC(c1ccc(Br)cc1)c1ccccn1 (stereo not drawn)"
  LABEL CLASS: "inactive"
- COMPOUND: "O=C(O)/C=C/c1ccc(O)c(O)c1"
  LABEL CLASS: "inactive"
- COMPOUND: "Cc1cccc(C2CN(C)CCc3c2cc(O)c(O)c3Cl)c1 (stereo not drawn)"
  LABEL CLASS: "inactive"
- COMPOUND: "O=C(O)C1=CC(=C(c2ccc(O)c(C(=O)O)c2)c2ccc(O)c(C(=O)O)c2)C=CC1=O"
  LABEL CLASS: "active"
- COMPOUND: "O=C1OC(=O)C2C3CCC(O3)C12 (stereo not drawn)"
  LABEL CLASS: "inactive"
- COMPOUND: "CC(C)NCC(O)COc1ccc(CC(N)=O)cc1 (stereo not drawn)"
  LABEL CLASS: "inactive"
- COMPOUND: "NC(N)=[N+]1CCc2ccccc2C1"
  LABEL CLASS: "inactive"

Please indicate how the test categorized C#CC(N)CCC(=O)O (stereo not drawn) .
inactive

Call for entry CC(=O)NNC(=O)N1Cc2ccccc2Oc2ccc(Cl)cc21 :
inactive

Assay result, entry COc1ccccc1N1CCN(CCCCNC(=O)c2ccc3ccccc3c2)CC1 — outcome?
inactive

// data source = PubChem BioAssay (NCATS)
